Data provenance: PubChem BioAssay

Test: inhibition of endothelial tube formation, primary screen, imaging, VEGF stimulated, CD31 staining, tube area, NPC library (AID 1117340)
Conditions: VEGF-stimulated ADSC/ECFC co-culture, at 10 µM
Calls of active or inactive are those of the source.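 How the source made its calls: active means compound that reduces growth-factor-driven endothelial tube area in a mixed cell culture, no cutoff stated; inactive means the rest.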
Return exactly one item of True (active), False (inactive)

COMPOUND: C[N+]1(CCCCC[N+]2(C)CCCC2)CCCC1
ASSIGNED CATEGORY: False

Q. Can you look up the reported call for Cc1ccccc1OCC(O)CO (configuration not stated) for me?
A. False

Q. Can you look up the reported call for CC(C(=O)O)c1ccc(CC2CCCC2=O)cc1 (configuration not stated) for me?
A. False

Q. Can you look up the reported call for CCC1=C(C)CN(C(=O)NCCc2ccc(S(=O)(=O)NC(=O)NC3CCC(C)CC3)cc2)C1=O (configuration not stated) for me?
A. False

Q. Can you look up the reported call for "CC[C@]12CCCN3CCc4c(n(c5ccccc45)[C@@](O)(C(=O)OC)C1)[C@@H]32" for me?
A. False

Q. Can you look up the reported call for "CCC(=O)O[C@H]1[C@H](O[C@@H]2[C@@H](C)[C@H](O[C@H]3C[C@@](C)(OC)[C@@H](O)[C@H](C)O3)[C@@H](C)C(=O)O[C@H](CC)[C@@](C)(O)[C@H](O)[C@@H](C)C(=O)[C@H](C)C[C@@]2(C)O)O[C@H](C)C[C@@H]1N(C)C" for me?
A. False

Q. Can you look up the reported call for "O=C(CCBr)N1CCN(C(=O)CCBr)CC1" for me?
A. True

====

Assay: GLP1 release stimulators, primary, NCI-H716, NPC library (AID 1117341); further: reference of the scale not given here
Details: NCI-H716 cells, at 10 µM, hits give high values
Listing of recorded GLP1 secretion stimulation by entry.
// return numeric value only (unit: %, not printed)

Solved cases below.
MOLECULE: C[C@@H]1CN(c2c(F)c(N)c3c(=O)c(C(=O)O)cn(C4CC4)c3c2F)C[C@H](C)N1
GLP1 secretion stimulation (%): 0.3
//
MOLECULE: CC1=C(C)C(=O)C(C(CCCCCC(=O)O)c2ccccc2)=C(C)C1=O (centres undefined)
GLP1 secretion stimulation (%): 4
//
MOLECULE: CCN(CC)CCNC(=O)c1ccc(NC(C)=O)cc1
GLP1 secretion stimulation (%): 1.6
//
MOLECULE: O=c1c(-c2ccc(O)cc2)coc2cc(O)cc(O)c12
GLP1 secretion stimulation (%): 7
//
MOLECULE: CCCCC(CC)CN1CN(CC(CC)CCCC)CC(C)(N)C1 (centres undefined)
GLP1 secretion stimulation (%): 53.9

Q. Tell me its GLP1 secretion stimulation given "Cc1ccc(NC(=O)c2ccc(CN3CCN(C)CC3)cc2)cc1Nc1nccc(-c2cccnc2)n1" as the entry.
A. 13.7

Q. Tell me its GLP1 secretion stimulation given "O=c1ccc2ccccc2o1" as the entry.
A. 2.9

Q. Tell me its GLP1 secretion stimulation given C1CCC(C(CC2CCCCN2)C2CCCCC2)CC1 (centres undefined) as the entry.
A. 4.9

Q. Tell me its GLP1 secretion stimulation given "NS(=O)(=O)c1cc(C(=O)O)c(NCc2ccco2)cc1Cl" as the entry.
A. 0.9

Q. Tell me its GLP1 secretion stimulation given "NC(N)=N/N=C/c1c(Cl)cccc1Cl" as the entry.
A. 2.1

Q. Tell me its GLP1 secretion stimulation given CCn1cc(C(=O)O)c(=O)c2cc(F)c(N3CCNC(C)C3)c(F)c21 (centres undefined) as the entry.
A. -0.4

Q. Tell me its GLP1 secretion stimulation given CC(C(=O)O)c1ccc2c(c1)[nH]c1ccc(Cl)cc12 (centres undefined) as the entry.
A. 4.6

Q. Tell me its GLP1 secretion stimulation given "O=C(CCCCC(=O)Nc1c(I)cc(I)c(C(=O)O)c1I)Nc1c(I)cc(I)c(C(=O)O)c1I" as the entry.
A. -3.5

Q. Tell me its GLP1 secretion stimulation given Nc1c2c(nc3ccccc13)CCCC2O (centres undefined) as the entry.
A. 8.3
